Test system: monoclonal antibody (1C6)
Format: binding, mouse
PROPERTY LABEL: % Cross-reactivity 3 (1C6) (%)

substance_smiles=COc1cc2c(c3oc(=O)c4c(c13)CCC4=O)[C@]1(O)C=CO[C@@H]1O2 value=3.9
substance_smiles=COc1cc2c(c3oc(=O)c4c(c13)CCOC4=O)[C@@H]1CCO[C@@H]1O2 value=2.3
substance_smiles=COc1cc2c(c3oc(=O)c4c(c13)CCC4=O)[C@@H]1C=CO[C@@H]1O2 value=100.00
substance_smiles=COc1cc2c(c3oc(=O)c4c(c13)CCOC4=O)[C@@H]1C=CO[C@@H]1O2 value=193.0
substance_smiles=COc1cc2c(c3oc(=O)c4c(c13)CCC4=O)[C@@H]1CCO[C@@H]1O2 value=6.7
